Exercise: for every item that follows, state its recorded TGI.
# Tested on: OVCAR-8 ovarian
# measurement_description: NCI tumour cell line growth inhibition, 48 h

Look over these answered cases.
| molecule | reported_result |
| --- | --- |
| COC1CCC(O)C(CO)O1 (stereo not given) | > 100 µM |
| O=C1C2C3SC(c4cc5ccccc5cc43)C2C(=O)N1c1ccccc1 (stereo not given) | > 100 µM |

// for each molecule in input: emit TGI
1. CC(Nc1cccc(Cl)c1)c1ccncc1 (stereo not given)
2. O=C(O)CSC1=NCCN1

Response line:
> 100 µM
> 100 µM

// for each molecule in input: emit TGI
1. COc1ccc(CC(C)NCC(O)c2ccc(O)c(NC=O)c2)cc1 (stereo not given)
2. CCn1c(-c2nonc2N)nc2cnc(Oc3cccc(NC(=O)c4ccc(OCCN5CCOCC5)cc4)c3)cc21
3. CN1CCN(c2ccc3nc(-c4[nH]ncc4Nc4ncnc5[nH]ccc45)[nH]c3c2)CC1
4. NCCNCCNCc1c2ccccc2c(CNCCNCCN)c2ccccc12
5. O=C(CN1CCCCC1)c1ccc2[nH]c(=O)oc2c1
6. C=C(C)[C@@H]1CC[C@]2(C(=O)OC)CC[C@]3(C)[C@H](CC[C@@H]4[C@@](C)(CCc5nn[nH]n5)[C@H](C(=C)C)CC[C@]43C)[C@@H]12
7. O=c1[nH]c2c(C(F)(F)F)c(Cl)c(-c3ccccc3)nc2o1
8. O=C(Nc1ccc(Cl)cc1)c1cc(S(=O)(=O)Nc2nc3ncccc3[nH]2)c(SSc2cc(Cl)c(C(=O)Nc3ccc(Cl)cc3)cc2S(=O)(=O)Nc2nc3ncccc3[nH]2)cc1Cl

Response line:
1: > 100 µM; 2: > 25 µM; 3: > 31.1 µM; 4: > 100 µM; 5: > 100 µM; 6: > 100 µM; 7: > 100 µM; 8: > 100 µM

// for each molecule in input: emit TGI
1. CCOC(=O)c1nc(SC)sc1NC(=O)c1ccc(OC)cc1
2. Cc1ccc(S(=O)(=O)N(CC(O)COc2ccccc2)c2c(F)c(F)c(F)c(F)c2F)cc1 (stereo not given)
3. Cc1cccc(C)c1NC(=S)N/C=C(\C#N)C(N)=O
4. CC(=O)N1N=C(c2ccccc2)NC(=O)C1c1cc(C)c(O)c(C)c1 (stereo not given)

Response line:
["> 100 µM", "32.8 µM", "> 100 µM", "31.4 µM"]

* * *

# Test system: LXFL 529 NSCLC
# measurement_description: NCI tumour cell line growth inhibition, 48 h
quantity_measured: TGI

| molecule | TGI |
| --- | --- |
| O=C1CN=C(c2ccccc2)c2ccncc2N1 | > 100 µM |
| CCOc1ccc2c(c1)[n+]([O-])c(-c1ccccc1)c(N)[n+]2[O-] | > 100 µM |
| O=c1c(-c2cccc3ccccc23)c(-c2cccc3ccccc23)c1=O | > 85 µM |

// for each molecule in input: emit TGI
1. CCO/C(O)=c1/s/c(=C2/SC(=S)N(c3ccc(C)cc3)C2=O)n(-c2ccccc2)c1=N
2. [O-]c1ccccc1C=NCCN=Cc1ccccc1[O-].[O]=[U+2]=[O]
3. [N-]=[N+]=NC1C(Cl)C(=O)NC(=O)N1[C@H]1C[C@H](O)[C@@H](CO)O1 (stereo partly drawn)
4. O=c1c2ccccc2c(=O)n2n1-c1cccc(c1)CSSCc1cccc-2c1
5. CCN(CC)CC(C(=O)Nc1c(C)cccc1C)/C(C)=N\NC(=S)NN (stereo not drawn)
6. CCN(CC)C(=O)c1cccc2c(OC)ccc(OC)c12

Response line:
> 100 µM
53.3 µM
> 100 µM
> 100 µM
> 100 µM
> 100 µM
